From: the supplement of paper PMC10724198

Give protein stability index for every item shown.
- Tested on: Saccharomyces cerevisiae;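 further: PSI is a weighted mean of sequencing reads over stability bins, variants kept only with over 10 reads, mCherry proximal and sfGFP distal, peptide attached via GGGS linker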
- experimental.details: protein stability index of tFT-peptide fusion (C-terminal peptide) (PSI (0-1 scale)); higher = more stable (slower turnover)
- measurement.conditions: genetic background: doa10 deletion; temperature: 30 C

Please review the entries below; each comes with its answer.
{"columns": ["seq.string", "assayed.target", "result"],
 "data": [
  ["VFLCFSWHFFLF", "Saccharomyces cerevisiae", 0.297],
  ["FVLFSIFHFFLW", "Saccharomyces cerevisiae", 0.356],
  ["ISSYKFLRIVLV", "Saccharomyces cerevisiae", 0.131],
  ["RFFFFFPCLLAP", "Saccharomyces cerevisiae", 0.519]
]}

Give protein stability index for each of the items listed below.
1. GGGVGVAVVLFW
2. LFDVLFVFSFIF
3. THRAVGIGLRCC
4. GRCGGPRSLGVG

Reply:
0.308
0.432
0.165
0.549

Give one value of protein stability index per listed sequence.
1. PSPPPPLPPHPS
2. LLDIYFILLVWF

Reply:
0.685
0.359

State the recorded protein stability index for every item in the following list.
1. FLFFRFLVGCCF
2. FGCCLYFCFWGL
3. VFFIFFFAFLFF
4. GWIFFYFTWFVG
5. EWRPYKRNKQSS
6. WFSVIMLCYILP
7. VPVWHTVKLYCF
8. RLARRGGGWGPG

Reply:
[0.299, 0.352, 0.393, 0.181, 0.223, 0.233, 0.073, 0.657]

List reported protein stability index for each of these sequences:
1. LIFFFCSWVFRF
2. DFIVVIRFIQII
3. SLSCYSFFVLAL
4. VVRVIWCQFSCF

Reply:
[0.327, 0.145, 0.391, 0.208]

Provide protein stability index values for the following items, in order.
1. WLFTSVTVFTFL
2. YFVLVRLICFLL
3. CSLRLCVRGAIV
4. LGATYSVQLYVS
5. VVGFVFSCWWSW

Reply:
0.181
0.194
0.586
0.0746
0.365

List protein stability index for every entry below, keeping the order given.
1. YVWPKRRGLRVA
2. LRSVVFFCRTLL
3. GLVVMFVIAGGG
4. HALCLSVYVSAH
5. PCFACIAFVLFP
6. LMLGARVSRRIH

Reply:
1. 0.197
2. 0.337
3. 0.258
4. 0.179
5. 0.334
6. 0.227

Below is a list of sequences. For each, state its recorded protein stability index.
1. ALWRAWLRLRIW
2. EVTRMLRVVREI
3. VLFFLVTSSVYF

Reply:
1: 0.143; 2: 0.322; 3: 0.159

# per-item lookup of protein stability index; items listed below
1. MIQPRLANIIIS
2. LLAVIVWIVPPA
3. LSYRFVFRFLLF

Reply:
1: 0.713; 2: 0.204; 3: 0.39
